Measured EOSINOPHIL by item
Species on record: Rattus norvegicus
assay-method-text: DrugMatrix - Regimen: Daily Repeat
Type: toxicity, organism-based, Sprague-Dawley
Set-up: regimen Daily Repeat, gender Male, age 6-8 weeks
condition-label: in vivo, po, 0 mg/kg, 120 h, tissue Blood, route oral GAVAGE, dose level Control, time 5 day, vehicle 100 % WATER
Reply with just the number (in %).

molecule | EOSINOPHIL (%)
CCN(CC)CCNC(=O)c1ccc(N)cc1 [PROCAINAMIDE] | 0
CN(C)C(=O)Oc1cccc([N+](C)(C)C)c1.[Br-] [NEOSTIGMINE BROMIDE] | 0.33
CCN(C(C)=O)c1cccc(-c2ccnc3c(C#N)cnn23)c1 | 0.17
NC12CC3CC(CC(C3)C1)C2 | 0.17
CNC1=Nc2ccc(Cl)cc2C(c2ccccc2)=[N+]([O-])C1 [CHLORDIAZEPOXIDE] | 0.17
NC(=O)c1cccnc1 [NIACINAMIDE] | 0.17

Input: Recorded EOSINOPHIL for CN(C)CCC=C1c2ccccc2CCc2ccccc21 , please?
Output: 0.17

Input: // lookup EOSINOPHIL for CCCC(C)C1(CC)C(=O)NC(=O)NC1=O (stereo not given)
Output: 0.33

Input: Using the record for CCN(CC)CCOC(=O)C1(C2CCCCC2)CCCCC1 , report its EOSINOPHIL.
Output: 0.2

Input: Return reported EOSINOPHIL; argument: O=c1[nH]c(=O)n(C2CCCO2)cc1F (stereo not given)
Output: 0

----------
Species: Rattus norvegicus
assay-method-text: DrugMatrix - Regimen: Daily Repeat
Assay type: toxicity, organism-based, Sprague-Dawley
Design: regimen Daily Repeat, gender Male, age 6-8 weeks
condition-label: in vivo, iv, 0 mg/kg, 120 h, tissue Blood, dose level Control, time 5 day, vehicle 100 % SALINE
property: ERYTHROCYTE COUNT (x10E6/uL)
The figure you give is taken to be in x10E6/uL; do not add the unit.

compound | ERYTHROCYTE COUNT / x10E6/uL
O=c1[nH]c(=O)n([C@H]2C[C@H](O)[C@@H](CO)O2)cc1F | 5.52
COc1cccc2c1C(=O)c1c(O)c3c(c(O)c1C2=O)C[C@@](O)(C(C)=O)C[C@@H]3O[C@H]1C[C@H](N)[C@H](O)[C@H](C)O1 | 5.93
O=C(O)P(=O)(O)O | 5.73
C[N+](C)(C)CCOC(=O)CCC(=O)OCC[N+](C)(C)C.[Cl-].[Cl-] [SUCCINYLCHOLINE CHLORIDE] | 5.99

Input: Please give the measured ERYTHROCYTE COUNT for this compound: N=C(N)c1ccc(OCCCCCOc2ccc(C(=N)N)cc2)cc1
Output: 5.99

----------
Species: Rattus norvegicus
assay-method-text: DrugMatrix - Regimen: Daily Repeat
Assay type: toxicity, organism-based, Sprague-Dawley
Parameters: regimen Daily Repeat, gender Male, age 6-8 weeks
condition-label: in vivo, po, 0 mg/kg, 120 h, tissue Blood, route oral GAVAGE, dose level Control, time 5 day, vehicle 100 % WATER
MEAN CORPUSCULAR HEMOGLOBIN reference
All answers are understood in pg, so give the number only.

Reference set, count: 5
molecule | MEAN CORPUSCULAR HEMOGLOBIN (pg)
CCCC(C)C1(CC)C(=O)NC(=O)NC1=O (stereo unspecified) | 24.82
CN(C)C(=O)Oc1cccc([N+](C)(C)C)c1.[Br-] [NEOSTIGMINE BROMIDE] | 24.82
O=c1[nH]c(=O)n(C2CCCO2)cc1F (stereo unspecified) | 24.42
NC(=O)c1cccnc1 [NIACINAMIDE] | 23.8
NC12CC3CC(CC(C3)C1)C2 | 24.85

Pending molecule:
Input: Quick one: MEAN CORPUSCULAR HEMOGLOBIN of CNC1=Nc2ccc(Cl)cc2C(c2ccccc2)=[N+]([O-])C1 [CHLORDIAZEPOXIDE] ?
Output: 24.72

----------
Species: Rattus norvegicus
assay-method-text: DrugMatrix - Regimen: Daily Repeat
Format: toxicity, organism-based, Sprague-Dawley
Parameters: regimen Daily Repeat, gender Male, age 6-8 weeks
condition-label: in vivo, ip, 0.5 mg/kg, […], tissue Blood, route intraperitoneal, dose level High, time 14 day, vehicle 100 % SALINE
property: ABSOLUTE MONOCYTE (cells/µL)
// note: answer is a bare numeric in cells/µL

Input: Recorded ABSOLUTE MONOCYTE for TRANSPLATIN , please?
Output: 260

----------
Species on record: Rattus norvegicus
assay-method-text: DrugMatrix - Regimen: Daily Repeat
Type: toxicity, organism-based, Sprague-Dawley
Parameters: regimen Daily Repeat, gender Male, age 6-8 weeks
condition-label: in vivo, po, 0 mg/kg, 72 h, tissue Plasma, route oral GAVAGE, dose level Control, time 3 day, […]
List of CHOLESTEROL values.

molecule | CHOLESTEROL
Cc1ccc(C)c(OCCCC(C)(C)C(=O)O)c1 | 64.5 mg/dL

Input: # query: CHOLESTEROL of entry CCCCC(=O)N(Cc1ccc(-c2ccccc2-c2nnn[nH]2)cc1)[C@H](C(=O)O)C(C)C
Output: 68.5 mg/dL

Input: Sample O=c1c(-c2ccc(O)cc2)coc2cc(O)cc(O)c12 — what was its CHOLESTEROL?
Output: 71.33 mg/dL

Input: Consider the molecule CCc1ccc(CCOc2ccc(CC3SC(=O)NC3=O)cc2)nc1 (centres undefined) and give its measured CHOLESTEROL.
Output: 75.83 mg/dL

Input: Fill in: CHOLESTEROL of ClC(Cl)(Cl)Cl [CARBON TETRACHLORIDE] is ___
Output: 66.33 mg/dL

Input: Which measured CHOLESTEROL value corresponds to CC(C)c1c(C(=O)Nc2ccccc2)c(-c2ccccc2)c(-c2ccc(F)cc2)n1CC[C@@H](O)C[C@@H](O)CC(=O)O ?
Output: 71.33 mg/dL

Input: Quick one: CHOLESTEROL for c1ccoc1 ?
Output: 74.83 mg/dL

Input: Give the measured CHOLESTEROL of CC(=O)Oc1ccccc1C(=O)O .
Output: 70.5 mg/dL

Input: For the molecule CS(=O)(=O)Nc1ccc([N+](=O)[O-])cc1Oc1ccccc1 [NIMESULIDE] , what CHOLESTEROL is on record?
Output: 75.67 mg/dL

----------
In this section, each of the compounds is paired with its reported MEAN CORPUSCULAR VOLUME.
Organism: Rattus norvegicus
assay-method-text: DrugMatrix - Regimen: Daily Repeat
Format: toxicity, organism-based, Sprague-Dawley
Set-up: regimen Daily Repeat, gender Male, age 6-8 weeks
condition-label: in vivo, po, 0 mg/kg, 72 h, tissue Blood, route oral GAVAGE, dose level Control, time 3 day, vehicle .5 % CMC
All answers are understood in fL, so give the number only.

compound | unit-tag | experimental-result
CN1CCN(C2=Nc3cc(Cl)ccc3Nc3ccccc32)CC1 | fL | 61.48
CCC1=C(C)CN(C(=O)NCCc2ccc(S(=O)(=O)NC(=O)N[C@H]3CC[C@H](C)CC3)cc2)C1=O [GLIMEPIRIDE] | fL | 64.42
C[C@]12CC[C@@H]3c4ccc(O)cc4CC[C@H]3[C@@H]1C[C@@H](O)[C@@H]2O | fL | 62.48

Input: Which MEAN CORPUSCULAR VOLUME value belongs to COc1cc(OC)c(C(=O)CCCN2CCCC2)c(OC)c1 ?
Output: 63.88

Input: Query: MEAN CORPUSCULAR VOLUME; subject: CCCCC1=NC2(CCCC2)C(=O)N1Cc1ccc(-c2ccccc2-c2nnn[nH]2)cc1
Output: 59.93

Input: Record request: MEAN CORPUSCULAR VOLUME value, item CCn1cc(C(=O)O)c(=O)c2cc(F)c(N3CCNC(C)C3)c(F)c21 (stereo unspecified)
Output: 58.52

Input: Please give the measured MEAN CORPUSCULAR VOLUME for this compound: NC(=O)N1c2ccccc2CC(=O)c2ccccc21 [OXCARBAZEPINE]
Output: 63.52

Input: Given the compound CN1C(=O)CN=C(c2ccccc2)c2cc([N+](=O)[O-])ccc21 , what is its reported MEAN CORPUSCULAR VOLUME?
Output: 64.22

Input: Which MEAN CORPUSCULAR VOLUME is reported for this compound? C[C@@H]1O[C@@H](O[C@H]2C[C@@H](O)[C@]3(CO)[C@H]4[C@H](O)C[C@]5(C)[C@@H](C6=CC(=O)OC6)CC[C@]5(O)[C@@H]4CC[C@]3(O)C2)[C@H](O)[C@H](O)[C@H]1O
Output: 64.33

Input: Given the compound C[C@@](Cc1ccc(O)c(O)c1)(NN)C(=O)O.O , what is its reported MEAN CORPUSCULAR VOLUME?
Output: 63.47

Input: May I ask what MEAN CORPUSCULAR VOLUME has been recorded for C#C[C@]1(O)CC[C@H]2[C@@H]3CCC4=CC(=O)CC[C@]4(C)[C@H]3CC[C@@]21C ?
Output: 63.66

Input: Data request, read-out MEAN CORPUSCULAR VOLUME, for COc1ccc2c(c1OC)C(=O)O[C@@H]2[C@H]1c2c(cc3c(c2OC)OCO3)CCN1C
Output: 63.66

Input: What value of measured MEAN CORPUSCULAR VOLUME is listed for CN(C)C(=O)C(CCN1CCC(O)(c2ccc(Cl)cc2)CC1)(c1ccccc1)c1ccccc1 [LOPERAMIDE] ?
Output: 64.42

Input: Given the entry CCOc1nc2cccc(C(=O)O)c2n1Cc1ccc(-c2ccccc2-c2nnn[nH]2)cc1 , report its measured MEAN CORPUSCULAR VOLUME.
Output: 62.77

Input: Fill in the blank: the reported MEAN CORPUSCULAR VOLUME of CCCNC(=O)NS(=O)(=O)c1ccc(Cl)cc1 [CHLORPROPAMIDE] is ____.
Output: 61.48

Input: Please look up its MEAN CORPUSCULAR VOLUME: COc1ccccc1[N+](=O)[O-]
Output: 61.4
